Target: SLC41A1-related Na+/Mg2+ exchanger (Homo sapiens)
Sequence (Q8IVJ1 whole entry): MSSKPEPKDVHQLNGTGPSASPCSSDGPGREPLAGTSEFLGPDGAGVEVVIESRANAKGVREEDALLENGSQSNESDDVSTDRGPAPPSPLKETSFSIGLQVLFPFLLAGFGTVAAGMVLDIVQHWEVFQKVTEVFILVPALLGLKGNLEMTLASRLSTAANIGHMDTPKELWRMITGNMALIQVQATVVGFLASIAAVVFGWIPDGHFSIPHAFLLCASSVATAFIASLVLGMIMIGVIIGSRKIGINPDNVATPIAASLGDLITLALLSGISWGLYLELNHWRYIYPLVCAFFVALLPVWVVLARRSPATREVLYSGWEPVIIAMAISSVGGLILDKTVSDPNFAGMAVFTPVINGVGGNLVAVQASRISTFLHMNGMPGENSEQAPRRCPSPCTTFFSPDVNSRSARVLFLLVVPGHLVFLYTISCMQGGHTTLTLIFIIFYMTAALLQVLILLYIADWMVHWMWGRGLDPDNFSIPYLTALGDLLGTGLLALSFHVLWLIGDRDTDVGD
Test: Modulators of SLC41A1-related Na+/Mg2+ exchanger activity (Table 3);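 note: listed substances are classed by whether they raise or lower SLC41A1-related Na+/Mg2+ exchanger activity, acting directly on the protein or through cellular signalling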
Type: cell-based
Conditions: at the dosage given, where given
endpoint.label: Effect on Na+/Mg2+ exchanger

>>> measurement("C=C[C@@]1(C)CC(=O)[C@]2(O)[C@@]3(C)[C@@H](O)CCC(C)(C)[C@@H]3[C@H](O)[C@H](OC(C)=O)[C@@]2(C)O1")
"activation"
>>> measurement("CCCCC[C@H](O)/C=C/[C@H]1[C@H](O)CC(=O)[C@@H]1C/C=C\\CCCC(=O)O")
"activation"
>>> measurement("C=CC1CN2CCC1CC2C(O)c1ccnc2ccc(OC)cc12 (stereo not drawn)")
"Inhibition"
>>> measurement("Nc1nc2c(nc(Br)n2[C@@H]2O[C@@H]3COP(=O)(O)O[C@H]3[C@H]2O)c(=O)[nH]1")
"activation"
>>> measurement("COc1c(O)c2c(=O)cc(OC)c3c4c(OC)cc(=O)c5c(O)c(OC)c(CC(C)OC(=O)c6ccccc6)c(c(c1CC(C)OC(=O)Oc1ccc(O)cc1)c23)c54 (stereo not drawn)")
"inhibition"
>>> measurement("CCCC(=O)Nc1ncnc2c1ncn2[C@@H]1O[C@@H]2COP(=O)(O)O[C@H]2[C@H]1OC(=O)CCC")
"activation"
>>> measurement("O=S(=O)([O-])c1cc(N=C=S)ccc1CCc1ccc(N=C=S)cc1S(=O)(=O)[O-].[Na+].[Na+]")
"Inhibition"
>>> measurement("COC(=O)C1=C(C)NC(C)=C(C(=O)OC)C1c1ccccc1[N+](=O)[O-]")
"Inhibition"
>>> measurement("CNC(=N)NCCC[C@H](N)C(=O)O")
"inhibition"

Values were extracted from patent US20130174289A1.
